So I've got a bunch of compounds here, and I need their melting point values.

Worked set:
Compound	Metric name	Result
CCOC(=O)/C=C/c1cnc(-c2ccc(OCc3ccccc3)c(C34CC5CC(CC(C5)C3)C4)c2)nc1	melting point	164 to 167 °C
COc1ccc2c(c1OC)C[C@@H](C1CCN(CCc3ccccc3)CC1)O[C@H]2CN (relative stereo)	melting point	100 to 102 °C
CC(C)c1cc(OCCO)cc2c1C(=O)N(COc1nc3ccccn3c(=O)c1Cl)S2(=O)=O	melting point	214 to 216 °C
CSc1nc(=O)n(C2CCCCC2)c(=O)n1C	melting point	137 to 139 °C
CCOC(=O)Cc1ccccc1Oc1ccc(C)cc1	melting point	75 °C
C=C(C)C(=O)NOC(=O)C(=C)C	melting point	55 °C
COc1cc(Nc2c(C#N)cnc3cc(-c4ccc(CN5CCOCC5)nc4)ccc23)c(Cl)cc1Cl	melting point	195 to 197 °C

Return reported melting point. Input compound: COc1ccc2c(c1)-c1cc(OC)ccc1C2=O
123 to 125 °C

Sourced from a melting point compilation (Tetko et al.; mined from patent text by program, amines drawn as free bases though some values may be those of a salt)
